EXPERIMENTAL_TARGET: SARS-CoV-2 spike, Wuhan strain, on virus or pseudotyped particles (SARS-CoV-2, UniProt P0DTC2 14-1273); note: test concentration or dose not given here
EXPERIMENTAL_DETAILS: cell-based or functional assay
READOUT_KIND: S-FuseNEUT (%)

{"BINDER": "Cv2.3194 (recombinant human IgG1) (antibody, V domains shown) VH: EVQLVESGGGLIQPGGSLRLSCAASGITVTSNYMSWVRQAPGKGLEWVSVIYPGGSTFYADSVKGRFTISRDNSKNTLYLQMNSLRAEDTAVYYCARDLVVYGMDVWGQGTTVTVSS VL: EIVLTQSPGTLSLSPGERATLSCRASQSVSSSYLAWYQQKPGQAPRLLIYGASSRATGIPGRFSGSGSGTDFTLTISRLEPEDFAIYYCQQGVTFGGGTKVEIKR", "RECORDED_MEASUREMENT": 100}
